System: von Bezold-Jarisch reflex evoked by 5-HT
Assay: Antagonism of the von Bezold-Jarisch reflex evoked by 5-HT in the anaesthetised rat
Assay type: in vivo
Details: Rattus norvegicus, iv; urethane-anaesthetised male rats; 5-HT-evoked changes in heart rate; 5-HT usually 6 μg/kg i.v.; read-out: ED50 (concentration required to reduce the 5HT-evoked response to 50% of the control response)
Structures can show the parent of a compound that is named as a salt.
Kindly supply the reported log10(ED50) values for the records listed here.
Log10 applied to ED50; unit prior to transform: µg/kg.

Query block: Name the reported log10(ED50) value associated with the compound CN1[C@@H]2CC[C@H]1C[C@@H](NC(=O)n1ccc3ccccc31)C2 [Example 11, hydrochloride]
Result block: 0.89

Query block: Using the record for CCc1cn(C(=O)N[C@H]2C[C@H]3CC[C@@H](C2)N3C)c2ccccc12 [Example 15, hydrochloride] , report its log10(ED50).
Result block: 0.30

Query block: State the recorded log10(ED50) for this entry: CC1c2ccccc2N(C(=O)N[C@H]2C[C@H]3CC[C@@H](C2)N3C)C1C (stereo partly drawn)
Result block: -0.28

Query block: # input compound: CCC1CN(C(=O)N[C@H]2C[C@H]3CC[C@@H](C2)N3C)c2ccccc21 (stereo partly drawn) [Example 14, hydrochloride] ; wanted: its log10(ED50)
Result block: 0.00

Query block: // log10(ED50) lookup, key: CC1(C)CN(C(=O)NC2CN3CCC2CC3)c2ccccc21 (stereo not drawn)
Result block: 0.72

Query block: What value of log10(ED50) has been reported for the following compound? CC(C)C1CN(C(=O)N[C@H]2C[C@H]3CC[C@@H](C2)N3C)c2ccccc21 (stereo partly drawn) [Example 22, hydrochloride]
Result block: -0.25
